target: WWP2^HECT (Homo sapiens); construct: GST-TEV (N, cleaved yes); made in house; host or cells: Escherichia coli BL21 (DE3); test: Naive Library Presenter Screening (phage, NGS), WWP2^HECT; format: binding; conditions: WWP2 target concentration 300 nM
Sequence (O00308 492-865): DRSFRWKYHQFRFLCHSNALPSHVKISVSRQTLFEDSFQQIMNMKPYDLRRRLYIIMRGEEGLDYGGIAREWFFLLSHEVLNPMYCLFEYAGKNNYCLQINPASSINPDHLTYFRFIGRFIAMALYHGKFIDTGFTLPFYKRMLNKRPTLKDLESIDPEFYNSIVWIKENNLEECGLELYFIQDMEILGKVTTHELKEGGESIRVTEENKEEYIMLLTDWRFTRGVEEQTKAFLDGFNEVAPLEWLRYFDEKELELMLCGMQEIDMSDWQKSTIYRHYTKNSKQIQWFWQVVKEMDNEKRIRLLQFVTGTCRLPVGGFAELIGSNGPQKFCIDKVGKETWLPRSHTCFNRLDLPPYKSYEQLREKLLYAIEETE
Numbered stars: 1 amine (or outer) side, 2 acyl side, 3 side chain; on linkers, the order of the positions; unused ones are H or OH. Bridge positions count the residues as written; N and C are the ends. Ends that are not written are not given here. Phenylene(1,4-NHCOCH2)2 = O=C(C[*:1])Nc1ccc(NC(=O)C[*:2])cc1
PARAMETER_MEASURED: interaction data at Target Concentration 300
Lab note: jot the number down without any unit.

{"RECORD_SEQUENCE": "DPATWDCQQAAHHCWVL (linker 7-14 via Phenylene(1,4-NHCOCH2)2 (inferred); not fully specified (C-terminus))", "SYSTEM_TESTED": "WWP2^HECT (Homo sapiens)", "VALUE_OBSERVED": 23}
{"RECORD_SEQUENCE": "DPAIQNCRSAADVCMFF (linker 7-14 via Phenylene(1,4-NHCOCH2)2; not fully specified (C-terminus))", "SYSTEM_TESTED": "WWP2^HECT (Homo sapiens)", "VALUE_OBSERVED": 109}
{"RECORD_SEQUENCE": "DPATWDCRNAAWLCLLN (linker 7-14 via Phenylene(1,4-NHCOCH2)2 (inferred); not fully specified (C-terminus))", "SYSTEM_TESTED": "WWP2^HECT (Homo sapiens)", "VALUE_OBSERVED": 8}

Now consider the entry below.
# query: interaction data at Target Concentration 300 of entry DPAYHHCLAAADLCSFF
147
